# subjectOfTest: SARS-CoV-2 Mac1 (Severe acute respiratory syndrome coronavirus 2, UniProt P0DTD1)
# protocolText: biochemical
# experimentalContext: read-out: %inhibition
Where a name gives a salt, the structure may show the parent alone.
Label y for high-side inhibition at 100 µM (at or above 7%) and n for low-side inhibition at 100 µM (below it).

Query string: Please tell me: is the compound CCCCCC(=O)O[C@]1(C(C)=O)CC[C@H]2[C@@H]3CCC4=CC(=O)CC[C@]4(C)[C@H]3CC[C@@]21C [Hydroxyprogesterone caproate] at or over 7% in terms of inhibition at 100 µM?
Result string: y

Query string: Please tell me: is the compound COc1ccc(NS(=O)(=O)c2ccc(N)cc2)nn1 at or over 7% in terms of inhibition at 100 µM?
Result string: n

Query string: Please tell me: is the compound Cc1ncc([N+](=O)[O-])n1CC(O)CCl (stereo not drawn) at or over 7% in terms of inhibition at 100 µM?
Result string: y

Query string: Please tell me: is the compound CCOc1ccc(NC(C)=O)cc1 at or over 7% in terms of inhibition at 100 µM?
Result string: y

Query string: Please tell me: is the compound C=CN1CCCC1=O at or over 7% in terms of inhibition at 100 µM?
Result string: n

Query string: Please tell me: is the compound CC(C)NC[C@H](O)COc1ccc(CCOCC2CC2)cc1 [Levobetaxolol HCl] at or over 7% in terms of inhibition at 100 µM?
Result string: y

Query string: Please tell me: is the compound CN(C)CCOC(C)(c1ccccc1)c1ccccn1 (stereo not drawn) [Doxylamine Succinate] at or over 7% in terms of inhibition at 100 µM?
Result string: n

Query string: Please tell me: is the compound C[C@@H](O)[C@H]1C(=O)N2C(C(=O)O)=C(SCCNC=N)C[C@H]12 at or over 7% in terms of inhibition at 100 µM?
Result string: y

Query string: Please tell me: is the compound CNC[C@H](O)c1cccc(O)c1 [Phenylephrine HCl] at or over 7% in terms of inhibition at 100 µM?
Result string: y

Query string: Please tell me: is the compound CC(=O)Nc1ccc(CC(=O)O)cc1 at or over 7% in terms of inhibition at 100 µM?
Result string: n

Query string: Please tell me: is the compound C[C@H]1C[C@@H]2[C@H]([C@@H](O)C[C@@]3(C)[C@H]2CC[C@]3(O)C(=O)CO)[C@@]2(C)C=CC(=O)C=C12 at or over 7% in terms of inhibition at 100 µM?
Result string: y

Query string: Please tell me: is the compound FC(F)(F)c1ccc(CNc2ccc(Cc3c[nH]c4ncc(Cl)cc34)cn2)cn1 at or over 7% in terms of inhibition at 100 µM?
Result string: n

Query string: Please tell me: is the compound Cc1cc(=O)[nH]c(=S)[nH]1 at or over 7% in terms of inhibition at 100 µM?
Result string: n

Query string: Please tell me: is the compound OCCOCCN1CCN(C(c2ccccc2)c2ccc(Cl)cc2)CC1 (stereo not drawn) [Hydroxyzine 2HCl] at or over 7% in terms of inhibition at 100 µM?
Result string: y

Query string: Please tell me: is the compound CCC(NC(C)C)C(O)c1ccc(O)c(O)c1 (stereo not drawn) [Isoetharine Mesylate] at or over 7% in terms of inhibition at 100 µM?
Result string: y

Query string: Please tell me: is the compound Nc1nc(F)nc2c1ncn2[C@@H]1O[C@H](CO)[C@@H](O)[C@@H]1O at or over 7% in terms of inhibition at 100 µM?
Result string: y

Query string: Please tell me: is the compound CNC(=O)[C@@H](NC(=O)[C@H](CC(C)C)[C@H](O)C(=O)NO)C(C)(C)C at or over 7% in terms of inhibition at 100 µM?
Result string: n

Query string: Please tell me: is the compound COC(=O)/C=C/C(=O)OC [Dimethyl Fumarate] at or over 7% in terms of inhibition at 100 µM?
Result string: y

Query string: Please tell me: is the compound COC(=O)C1=C(C)NC(C)=C(C(=O)OCCN(C)Cc2ccccc2)C1c1cccc([N+](=O)[O-])c1 (stereo not drawn) at or over 7% in terms of inhibition at 100 µM?
Result string: n

Query string: Please tell me: is the compound COCCOC(=O)C1=C(C)NC(C)=C(C(=O)OC(C)C)C1c1cccc([N+](=O)[O-])c1 (stereo not drawn) at or over 7% in terms of inhibition at 100 µM?
Result string: y

Query string: Please tell me: is the compound O=P(O)(O)C(O)(Cc1cccnc1)P(=O)(O)O [Risedronate Sodium] at or over 7% in terms of inhibition at 100 µM?
Result string: y

Query string: Please tell me: is the compound CS(=O)(=O)n1cc2c(n1)CN([C@H]1CO[C@H](c3cc(F)ccc3F)[C@@H](N)C1)C2 at or over 7% in terms of inhibition at 100 µM?
Result string: n

Query string: Please tell me: is the compound O=c1[nH]c(=O)n([C@H]2C[C@H](O)[C@@H](CO)O2)cc1C(F)(F)F at or over 7% in terms of inhibition at 100 µM?
Result string: n
